# protocol.notes: Quantitative High-Throughput drug screen in 47 multiple myeloma cell lines against the NCATS MIPE library collection: Karpas417_ECACC cell viability assay (AID 1918961)
# experimental.context: Karpas417 myeloma viability, CellTiter-Glo ATP luminescence, 48 h
Records with an inconclusive call do not appear. Activity calls are given as the source filed them. The call rests on the fitted dose curve; in most records, active means well fitted cell-killing curve with a large enough effect; inconclusive means small, poorly fitted or top-dose-only effect, or effect the other way; inactive means no such curve, though single readings can be large or run the other way.
Respond only with the outcome that fits, drawn from active, inactive

compound.string	label
COc1cccc2c1C(=O)c1c(O)c3c(c(O)c1C2=O)C[C@@](O)(C(C)=O)C[C@H]3O[C@H]1C[C@H](N)[C@H](O)[C@H](C)O1	active

Hey, what did the test say about CC(C)Oc1ccc(C(=O)N[C@H](CNC(=O)CN(C)C)Cc2ccc(-c3cn4cccc([C@H](C)O)c4n3)cc2)cc1Cl ?
inactive

Hey, what did the test say about CCc1cnn2c(NCc3ccc[n+]([O-])c3)cc(N3CCCC[C@@H]3CCO)nc12 ?
active

Hey, what did the test say about Cn1cc(-c2cnn3c(N)c(Br)c([C@H]4CCCNC4)nc23)cn1 ?
active

###

# protocol.notes: Quantitative High-Throughput drug screen in 47 multiple myeloma cell lines against the NCATS MIPE library collection: KMM1_JCRB cell viability assay (AID 1918960); further: nearly all actives have a fitted effect of over 30% in size
# experimental.context: KMM1 myeloma viability, CellTiter-Glo ATP luminescence, 48 h; series mostly up to 45.8 µM
Inconclusive results are not listed. Activity calls are given as the source filed them. Calls follow the shape of the dose curve; as a rule, active = well fitted cell-killing curve with a large enough effect; inconclusive = small, poorly fitted or top-dose-only effect, or effect the other way; inactive = no such curve, though single readings can be large or run the other way.
Respond only with the outcome that fits, drawn from active, inactive

As a guide, the following entries are already answered.
compound	label
COc1cc(OC)c(NC(=O)Nc2cc(C)on2)cc1Cl	inactive
Cn1c(Nc2ccc(C(F)(F)F)cc2)nc2cc(Oc3ccnc(-c4ncc(C(F)(F)F)[nH]4)c3)ccc21	active

Hey, what did the test say about CC(C)(O)Cn1c(NC(=O)c2ccc(-c3cn[nH]c3)s2)nc2cc(CN3CCOCC3)ccc21 ?
active

Hey, what did the test say about CN(CC(=O)N(Cc1ccc(C2CCCCC2)cc1)c1ccc(C(=O)O)c(O)c1)S(=O)(=O)c1c(F)c(F)c(F)c(F)c1F ?
active

Hey, what did the test say about CC(C)N1[N]C(=C2C=c3cc(O)ccc3=N2)c2c(N)ncnc21 ?
active

Hey, what did the test say about CCCCOc1ccc(C(=O)Nc2ccc(F)cc2F)cc1 ?
inactive

Hey, what did the test say about C#Cc1cccc(Nc2ncnc3cc(OCCOC)c(OCCO)cc23)c1 ?
active

Hey, what did the test say about CCNC(=O)Nc1ccc(-c2nc3c(c(N4CCOC[C@H]4C)n2)CCN(C2COC2)C3)cc1 ?
active

Hey, what did the test say about NC(=O)c1ncn([C@@H]2O[C@H](CO)[C@@H](O)[C@@H]2O)c1O ?
inactive

Hey, what did the test say about COc1cc(C)c(Sc2cnc(NC(=O)c3ccc(CNC(C)C(C)(C)C)cc3)s2)cc1C(=O)N1CCN(C(C)=O)CC1 (stereo unspecified) ?
active

Hey, what did the test say about C[C@@H]1[C@H](C)CC[C@]2(C(=O)O)CC[C@]3(C)C(=CC[C@@H]4[C@@]5(C)C[C@@H](O)[C@H](O)[C@@](C)(CO)[C@H]5CC[C@]43C)[C@@H]12 ?
inactive

###

# protocol.notes: qHTS Screen of the MIPE 4.0 Collection Against Ewings Sarcoma (TC71) (AID 1259253); further: nearly all actives have a fitted effect of over 40% in size; further: potency means the concentration at half of the fitted maximal effect
# experimental.context: TC71 Ewing sarcoma viability, CellTiter-Glo, 48 h; series mostly up to 45.8 µM
Records with an inconclusive call do not appear. Active and inactive are the calls of the source. The call rests on the fitted dose curve; in most records, active means well fitted inhibition curve with a large enough effect; inconclusive means small, poorly fitted or top-dose-only effect; inactive means no such curve, though single readings can be large or run the other way. Positions of bridges follow the written chain, without caps; N, C: chain ends. Non-standard residues stand in square brackets, D forms with d. Residues, ends and D or L forms follow the SMILES beside them. ξ: configuration not given here. *: point of attachment. Octanoyl(6-Me) = CCC(C)CCCCC(=O)*; ξThr(3R) = C[C@@H](O)C(N)C(=O)O; dDab = NCC[C@@H](N)C(=O)O; Dab = NCC[C@H](N)C(=O)O
endpoint.name: Potency

compound	Potency
COc1ccc2c(c1OC)C(=O)OC2[C@H]1c2c(cc3c(c2OC)OCO3)CCN1C (stereo not given in full)	0.235 µM (active)
CCOC(=O)N1CCN([N+]([O-])=NOc2ccc([N+](=O)[O-])cc2[N+](=O)[O-])CC1	10.5 µM (active)
CCCCCCCCc1ccc(CCC(N)(CO)CO)cc1	20.9 µM (active)
O=C(Nc1nnc(-c2ccco2)o1)c1cc(-c2ccccc2)nc2ccccc12	16.6 µM (active)
CCCNC(=O)[C@H]1O[C@H]1C(=O)N[C@H](C(=O)N1CCC[C@@H]1C(=O)OC)C(C)CC (stereo not given in full)	6.62 µM (active)
CCC(C)CCCCC(=O)N[C@@H](CCN)C(=O)NC(C(=O)N[C@H](CCN)C(=O)N[C@@H]1CCNC(=O)C([C@@H](C)O)NC(=O)[C@@H](CCN)NC(=O)[C@@H](CCN)NC(=O)[C@@H](CC(C)C)NC(=O)[C@H](Cc2ccccc2)NC(=O)[C@H](CCN)NC1=O)[C@@H](C)O (stereo partly drawn) ({Octanoyl(6-Me)}-[Dab][ξThr(3R)][dDab][dDab][Dab]F[dL][dDab][dDab][ξThr(3R)]; lactam 4-C)	inactive
Nc1nc(=O)n([C@H]2CSC(CO)O2)cc1F (stereo not given in full)	inactive
Cn1cc(C[C@@H](N)C(=O)O)c2ccccc21	inactive
CN(N=O)C(=O)N[C@H]1C(O)OC(CO)[C@@H](O)[C@H]1O (stereo not given in full)	inactive
Nc1ccn(C2CO[C@H](CO)O2)c(=O)n1 (stereo not given in full)	inactive

The recorded Potency for entry CCC[C@H]1C[C@H](C(=O)N[C@@H]([C@@H]2O[C@@H](SC)[C@@H](O)[C@@H](O)[C@@H]2O)[C@H](C)Cl)N(C)C1 equals inactive

The recorded Potency for entry CCOC(=O)[C@@H](N)Cc1ccc(-c2cc(O[C@H](c3ccc(Cl)cc3-n3ccc(C)n3)C(F)(F)F)nc(N)n2)cc1 equals 23.5 µM (active)

###

# protocol.notes: qHTS of pediatric cancer cell lines to identify multiple opportunities for drug repurposing: Confirmatory screen for LAN-5 cells (AID 1347113); further: potency means the concentration at half of the fitted maximal effect; nearly all actives have a fitted effect of over 65% in size
# experimental.context: LAN-5 neuroblastoma cell viability; series mostly up to 45.9 µM
Inconclusive results are not listed. Active and inactive are the calls of the source. The call rests on the fitted dose curve; in most records, active means well fitted cell-killing curve with a large enough effect; inconclusive means small, poorly fitted or top-dose-only effect, or effect the other way; inactive means no such curve, though single readings can be large or run the other way.
endpoint.name: Potency

compound.string	Potency
COc1cccc2c1C(=O)c1c(O)c3c(c(O)c1C2=O)C[C@@](O)(C(C)=O)C[C@H]3O[C@H]1C[C@H](N)[C@H](O)[C@H](C)O1	0.185 µM (active)
CC(=O)O[C@H]1C[C@@H]2CC[C@H]3[C@H]4C[C@H]([N+]5(C)CCCCC5)[C@@H](OC(C)=O)[C@@]4(C)CC[C@@H]3[C@@]2(C)C[C@H]1N1CCCCC1	4.14 µM (active)
CC(C)(O)Cn1c(NC(=O)c2ccc(-c3cn[nH]c3)s2)nc2cc(CN3CCOCC3)ccc21	1.04 µM (active)

The recorded Potency for entry COc1cc([C@@H]2c3cc4c(cc3[C@H](O)[C@H]3COC(=O)[C@@H]23)OCO4)cc(OC)c1OC equals 1.04 µM (active)

###

# protocol.notes: Quantitative High-Throughput drug screen in 47 multiple myeloma cell lines against the NCATS MIPE library collection: ARD_JJKsccE7 cell viability assay (AID 1918929)
# experimental.context: ARD myeloma cell line viability, CellTiter-Glo, 48 h; series mostly up to 45.8 µM
Records with an inconclusive call do not appear. Active and inactive are the calls of the source. Calls follow the shape of the dose curve; as a rule, active = well fitted cell-killing curve with a large enough effect; inconclusive = small, poorly fitted or top-dose-only effect, or effect the other way; inactive = no such curve, though single readings can be large or run the other way.
Respond only with the outcome that fits, drawn from active, inactive

As a guide, the following entries are already answered.
compound	label
CCOc1cc2ncc(C#N)c(Nc3ccc(OCc4ccccn4)c(Cl)c3)c2cc1NC(=O)C=CCN(C)C	active
OCCNC1CCCc2c1[nH]c1ccc(-c3ccccc3)cc21 (stereo unspecified)	active
C[C@@H]1[C@H](C)CC[C@]2(C(=O)O)CC[C@]3(C)C(=CC[C@@H]4[C@@]5(C)C[C@@H](O)[C@H](O)[C@@](C)(CO)[C@H]5CC[C@]43C)[C@@H]12	inactive
C[C@H](NC(=O)[C@@H](O)c1cc(F)cc(F)c1)C(=O)N[C@@H]1C(=O)N(C)c2ccccc2-c2ccccc21	inactive
CN[C@H](CC(C)C)C(=O)N[C@H]1C(=O)N[C@@H](CC(N)=O)C(=O)N[C@@H]2C(=O)N[C@H]3C(=O)N[C@H](C(=O)N[C@H](C(=O)O)c4cc(O)cc(O)c4-c4cc3ccc4O)[C@H](O)c3ccc(c(Cl)c3)Oc3cc2cc(c3O[C@@H]2O[C@H](CO)[C@@H](O)[C@H](O)[C@@H]2O[C@H]2C[C@](C)(N)[C@H](O)[C@H](C)O2)Oc2ccc(cc2Cl)[C@H]1O	active
Cc1ccc2nc(NCCN)c3ncc(C)n3c2c1	active
NC(=O)c1ncn([C@@H]2O[C@H](CO)[C@@H](O)[C@@H]2O)c1O	inactive
Cc1cc(O)c2c(c1)C(=O)c1cccc(O)c1C2=O	inactive
O=C(c1ccc(F)cc1)N1CCC[C@H](c2nc(-c3ccc(F)cc3)no2)C1	inactive
O=C1c2cccc(O)c2C(=O)c2c(O)cc(CO)cc21	inactive

Hey, what did the test say about FC(F)(F)c1ccc(Nc2nc3ccc(Oc4ccnc(-c5ncc(C(F)(F)F)[nH]5)c4)cc3[nH]2)cc1 ?
active

Hey, what did the test say about Cc1cnc(Nc2ccc(N3CCN(C)CC3)cc2)nc1Nc1cccc(S(=O)(=O)NC(C)(C)C)c1 ?
active

Hey, what did the test say about CN(CC(=O)N(Cc1ccc(C2CCCCC2)cc1)c1ccc(C(=O)O)c(O)c1)S(=O)(=O)c1c(F)c(F)c(F)c(F)c1F ?
active

Hey, what did the test say about C[C@H](NCc1ccc2c(c1)nc(NC(=O)c1ccc(-c3cn[nH]c3)s1)n2CCc1ccccc1)C(C)(C)C ?
active

Hey, what did the test say about CC(C)C[C@H](NC(=O)CNC(=O)c1cc(Cl)ccc1Cl)B1OC(=O)CC(CC(=O)O)(C(=O)O)O1 (stereo partly specified) ?
active

Hey, what did the test say about O=C(C=CC=Cc1ccc2c(c1)OCO2)N1CCCCC1 ?
inactive
